Tested on: CRFK cells
Test: Cytotoxicity assay
Assay type: cell-based, feline
Details: read-out: Cytotoxicity CC50, 48 h, MTS assay
Exam item: assign T to entries whose CC50 is below 300 µM and F to entries at or above 300 µM. Note that a value of exactly 300 µM receives F.

>  <molecule>
Cc1ccc(S(=O)(=O)N/N=C\C=C\c2ccccc2)cc1 [CID5372747]

>  <cat>
F

$$$$
>  <molecule>
C[C@@H]1O[C@@H](Oc2cc(O)c3c(=O)c(O)c(-c4ccc(O)c(O)c4)oc3c2)[C@H](O)[C@H](O)[C@H]1O [CID5748601]

>  <cat>
F

$$$$
>  <molecule>
CC1Oc2cc3c(-c4c(O)cc(O)c5c(O)c6c(cc45)OC(C)C(C)C6=O)c(O)cc(O)c3c(O)c2C(=O)C1C (stereo not drawn) [NSC345647, Chaetochromin]

>  <cat>
T

$$$$
>  <molecule>
CO[C@H]1C[C@@H]2\C=C(C)/C=C/C=C\C(=O)N[C@H](c3ccccc3)C/C=C/CC[C@H](O)CC(=O)C2=C1O [NSC343256, Hitachimycin]

>  <cat>
T

$$$$
>  <molecule>
COc1cc(O)c2c(=O)cc(-c3ccc(O)c(O)c3)oc2c1 [CID5318214]

>  <cat>
F

$$$$

---

System: FIPV strain 79–1146
Assay: Antiviral assay, prophylactic activity
Type: cell-based, feline infectious peritonitis virus
Settings: read-out: Prophylactic antiviral activity EC50, IPMA; compound incubation at 37 °C for 2 h before inoculation with FIPV at 100 TCID50/well, CRFK cells

>  <molecule>
CO[C@H]1C[C@@H]2\C=C(C)/C=C/C=C\C(=O)N[C@H](c3ccccc3)C/C=C/CC[C@H](O)CC(=O)C2=C1O

>  <EC50>
16.2 µM

$$$$
>  <molecule>
COc1cc(O)c2c(=O)cc(-c3ccc(O)c(O)c3)oc2c1

>  <EC50>
> 200 µM

$$$$
>  <molecule>
C[C@@H]1O[C@@H](Oc2cc(O)c3c(=O)c(O)c(-c4ccc(O)c(O)c4)oc3c2)[C@H](O)[C@H](O)[C@H]1O

>  <EC50>
> 200 µM

$$$$
>  <molecule>
Cc1ccc(S(=O)(=O)N/N=C\C=C\c2ccccc2)cc1

>  <EC50>
> 200 µM

$$$$
>  <molecule>
CC1Oc2cc3c(-c4c(O)cc(O)c5c(O)c6c(cc45)OC(C)C(C)C6=O)c(O)cc(O)c3c(O)c2C(=O)C1C (stereo not drawn)

>  <EC50>
2.85 µM

$$$$
>  <molecule>
O=C1C(=O)N(Cc2ccc(Cc3ccc(CN4C(=O)C(=O)c5ccccc54)cc3)cc2)c2ccccc21

>  <EC50>
> 200 µM

$$$$

---

Tested on: FIPV strain 79–1146
Assay: Antiviral assay, pre-viral entry activity
Format: cell-based, feline infectious peritonitis virus
Conditions: SI = CC50/EC50

>  <compound>
CO[C@H]1C[C@@H]2\C=C(C)/C=C/C=C\C(=O)N[C@H](c3ccccc3)C/C=C/CC[C@H](O)CC(=O)C2=C1O

>  <measurementTarget>
FIPV strain 79–1146

>  <Pre-viral entry SI>
2.89

$$$$
>  <compound>
NC(=O)c1ncn([C@@H]2O[C@H](CO)[C@@H](O)[C@H]2O)n1 [Ribavirin, reference compound]

>  <measurementTarget>
FIPV strain 79–1146

>  <Pre-viral entry SI>
25.68

$$$$
>  <compound>
COc1cc(C)c2c(c1C=O)Oc1c(c(C)c(O)c3c1C(O)OC3=O)OC2=O (centres unmarked)

>  <measurementTarget>
FIPV strain 79–1146

>  <Pre-viral entry SI>
22.90

$$$$
>  <compound>
CC1Oc2cc3c(-c4c(O)cc(O)c5c(O)c6c(cc45)OC(C)C(C)C6=O)c(O)cc(O)c3c(O)c2C(=O)C1C (centres unmarked)

>  <measurementTarget>
FIPV strain 79–1146

>  <Pre-viral entry SI>
8.88

$$$$
>  <compound>
Cc1cccc(C)c1OCC(=O)N[C@@H](Cc1ccccc1)[C@@H](O)C[C@H](Cc1ccccc1)NC(=O)[C@H](C(C)C)N1CCCNC1=O [Lopinavir, reference compound]

>  <measurementTarget>
FIPV strain 79–1146

>  <Pre-viral entry SI>
61.52

$$$$

---

Biological target: FIPV 3CL^pro (Feline coronavirus, UniProt Q98VG9)
Sequence (Q98VG9 2904-3205 limits assumed): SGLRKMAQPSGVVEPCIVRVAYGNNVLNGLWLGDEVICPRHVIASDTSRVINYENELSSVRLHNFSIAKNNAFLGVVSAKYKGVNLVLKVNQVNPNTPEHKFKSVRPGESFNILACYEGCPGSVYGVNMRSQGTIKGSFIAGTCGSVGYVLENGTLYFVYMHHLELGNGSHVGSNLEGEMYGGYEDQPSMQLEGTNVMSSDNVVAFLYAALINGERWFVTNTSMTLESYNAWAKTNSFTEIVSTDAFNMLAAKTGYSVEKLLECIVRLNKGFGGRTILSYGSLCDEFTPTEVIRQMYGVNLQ
Assay: FIPV 3CLpro protease inhibition assay
Conditions: Ki value, competitive inhibition, 35 nM FIPV 3CL^pro, substrate 3 to 40 μM
pKi: −log10 of the molar value.

>  <compound>
COc1cc(C)c2c(c1C=O)Oc1c(c(C)c(O)c3c1C(O)OC3=O)OC2=O (stereo not shown) [NSC87511, Stictic acid]

>  <pKi>
4.77

$$$$

---

Reported pIC50 values follow for various compounds
Molecular target: FIPV 3CL^pro (Feline coronavirus, UniProt Q98VG9)
Test: FIPV 3CLpro protease inhibition assay
Assay type: biochemical, feline infectious peritonitis virus (FIPV strain 79–1146)
Details: Protease inhibition assay (IC50), 35 nM enzyme, 6 μM fluorogenic substrate
pIC50: −log10 of the molar value.
observedProperty: pIC50

>  <compound>
COc1cc(C)c2c(c1C=O)Oc1c(c(C)c(O)c3c1C(O)OC3=O)OC2=O (centres unmarked) [NSC87511, Stictic acid]

>  <measurementTarget>
FIPV 3CL^pro (Feline coronavirus, UniProt Q98VG9)

>  <limitSign>
=

>  <resultValue>
4.53

$$$$
>  <compound>
CC[C@](C)(O)C(=O)O[C@H]1C(=O)O[C@@H]2C[C@H]3C(C)=C[C@H](O)[C@@H](O)[C@]3(C)[C@H]3[C@]4(O)OC[C@]32[C@@H]1[C@@H](C)[C@H]4O [NSC14975]

>  <measurementTarget>
FIPV 3CL^pro (Feline coronavirus, UniProt Q98VG9)

>  <limitSign>
<

>  <resultValue>
3.30

$$$$

---

Molecular target: FIPV 3CL^pro (Feline coronavirus)
Experiment: FIPV 3CLpro protease inhibition assay
Format: biochemical, feline infectious peritonitis virus (FIPV strain 79–1146)
Conditions: read-out: Protease inhibition assay (IC50); 35 nM enzyme, 6 μM fluorogenic substrate
Reported IC50 values follow for various molecules
observedProperty: IC50 (µM)

>  <molecule>
C/C(=C\COc1ccc2ccc(=O)oc2c1)C1=CC(=O)C(C)(C)O1

>  <unitDescriptor>
µM

>  <limitSign>
>

>  <resultValue>
500

$$$$
>  <molecule>
CC1Oc2cc3c(-c4c(O)cc(O)c5c(O)c6c(cc45)OC(C)C(C)C6=O)c(O)cc(O)c3c(O)c2C(=O)C1C (centres unmarked)

>  <unitDescriptor>
µM

>  <limitSign>
=

>  <resultValue>
6.3

$$$$
>  <molecule>
CO[C@H]1C[C@@H]2\C=C(C)/C=C/C=C\C(=O)N[C@H](c3ccccc3)C/C=C/CC[C@H](O)CC(=O)C2=C1O

>  <unitDescriptor>
µM

>  <limitSign>
=

>  <resultValue>
24.5

$$$$
>  <molecule>
C[C@@H]1O[C@@H](Oc2cc(O)c3c(=O)c(O)c(-c4ccc(O)c(O)c4)oc3c2)[C@H](O)[C@H](O)[C@H]1O

>  <unitDescriptor>
µM

>  <limitSign>
=

>  <resultValue>
77.2

$$$$
>  <molecule>
O=C1C(=O)N(Cc2ccc(Cc3ccc(CN4C(=O)C(=O)c5ccccc54)cc3)cc2)c2ccccc21

>  <unitDescriptor>
µM

>  <limitSign>
=

>  <resultValue>
10.3

$$$$
